system: HA H1 A/California/07/09 (Influenza A virus (A/California/07/2009(H1N1)))
assay comment: biochemical
condition info: Competition binding (AlphaLISA), pIC50 H1 A/California/07/09
Listed next: entries and their corresponding pIC50.
On this scale, pIC50 is minus log10 of a concentration expressed in M (mol/L).

Below, 3 molecules whose answers are already recorded.
{"columns": ["molecule", "system", "test result"],
 "data": [
  ["COc1ccc2nc(-c3cccc(C(=O)N4CCN(C(Cc5nnco5)c5ccccc5)CC4)c3)sc2c1 (stereo not shown)", "HA H1 A/California/07/09 (Influenza A virus (A/California/07/2009(H1N1)))", 5.80],
  ["COC(=O)[C@@H](c1ccccc1)N1CCN(C(=O)c2cccc(-c3nc4cc(OC)ccc4o3)c2)CC1", "HA H1 A/California/07/09 (Influenza A virus (A/California/07/2009(H1N1)))", 8.20],
  ["Cc1nnc([C@@H](c2ccccc2)N2CCN(C(=O)c3cccc(-c4nc5c(C)cccc5o4)c3)CC2)o1", "HA H1 A/California/07/09 (Influenza A virus (A/California/07/2009(H1N1)))", 7.20]
]}

Turning now to a further record.
Lookup: Any idea what pIC50 was measured for `CCOC(=O)[C@@H](c1ccccc1)N1CCN(C(=O)c2cccc(-c3ccc(OC)cc3)c2)CC1` ?
Found: 7.00
